# credit: ChEMBL document CHEMBL1667864

test system: Hepatitis B virus; test: Antiviral activity against HBV infected in human HepG 2.215 cells assessed as inhibition of HBeAg secretion by ELISA; type: functional, organism-based; conditions: HepG2.2.15
Task for the reader: assign each of the following compounds its reported IC50.
One number for each entry, in µM.

Answered examples (3):
For `CC(C)(C)[Si](OCCc1c(OS(=O)(=O)C(F)(F)F)nc2ccc(Cl)cc2c1-c1ccccc1Cl)(c1ccccc1)c1ccccc1` the compound record lists IC50 as 767

For `OCCc1c(Cl)nc2ccc(Cl)cc2c1-c1ccccc1Cl` the compound record lists IC50 as 11.3

For `OCCc1c(OCc2c(Cl)cccc2Cl)nc2ccc(Cl)cc2c1-c1ccccc1Cl` the compound record lists IC50 as 12.2

Could you report IC50 for every entry in the following list?
1. OCCc1c(OCc2c(F)cccc2F)nc2ccc(Cl)cc2c1-c1ccccc1Cl
2. OCCc1c(Nn2nnc3ccccc32)nc2ccc(Cl)cc2c1-c1ccccc1Cl

Response given:
1: 1630; 2: 111
